# Test Target: ATF6B (Homo sapiens)
# Assay Comment: Direct-binding FRET assay
# Set-up: made in house
# Test Context: Kd, 23°C; C-terminal fluorescein design as donor, TAMRA target titrated
pKd: −log10 of the molar value. Where no end group is shown, it is not given here.
Readout Type: pKd

[
  {
    "Sequence Code": "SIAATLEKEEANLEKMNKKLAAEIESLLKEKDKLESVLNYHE [JUN-d1]",
    "Readout Type": "pKd",
    "Recorded Value": "< 6.00"
  }
]

---

# Test Target: ATF6B (Homo sapiens, UniProt Q99941)
# Sequence (Q99941 325-388 limits assumed): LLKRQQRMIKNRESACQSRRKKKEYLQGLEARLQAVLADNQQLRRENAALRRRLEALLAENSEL
# Assay Comment: Direct-binding FRET assay
# Design: made in house
# Test Context: Kd, 37°C; N-terminal rhodamine design; mean or single
Where no end group is shown, it is not given here.
Readout Type: Kd

[
  {
    "Sequence Code": "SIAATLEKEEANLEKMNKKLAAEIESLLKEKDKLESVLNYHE [JUN-d1]",
    "Test Target": "ATF6B (Homo sapiens, UniProt Q99941)",
    "Readout Type": "Kd",
    "Recorded Value": "> 1000 nM"
  }
]

Data provenance: paper PMC4335062
